experiment: Selectivity index, ratio of EC50 for cytotoxicity against rat H9C2 cells to EC50 for antitrypanosomal activity against Trypanosoma cruzi Y amastigotes infected in rat H9C2 cells; assay type: toxicity, cell-based; settings: read-out: Ratio EC50
Rule: measured selectivity ratio below 2 gets 1; anything equal to or greater than 2 gets -1.

- recordSmiles: "C=CCC(=O)O[C@H]1CC[C@@]2(C)[C@@H](CC[C@@H]3[C@@H]2CC[C@]2(C)C(=O)[C@H](Br)C[C@@H]32)C1"
  cat: -1

Attention now turns to another entry.
IN: # check: selectivity ratio < 2 for C[C@]12CC[C@H](OCCS(=O)(=O)N3CCOCC3)C[C@@H]1CC[C@@H]1[C@@H]2CC[C@]2(C)C(=O)[C@H](Br)C[C@@H]12
OUT: -1

====

test system: H9c2; assay: Cytotoxicity against rat H9c2 cells at 20 uM after 72 hrs by Hoechst 33342 staining based fluorescence microscopy; assay type: cell-based; settings: h9c2, 72 h
propertyLabel: Activity

Recorded results for 5 compounds are shown here.
- compound: "CC(C)C(=O)O[C@H]1CC[C@@]2(C)[C@@H](CC[C@@H]3[C@@H]2CC[C@]2(C)C(=O)CC[C@@H]32)C1"
  Activity: "Non-Toxic"
- compound: "C[C@]12CC[C@H](O)C[C@@H]1CC[C@@H]1[C@@H]2CC[C@]2(C)C(=O)CC[C@@H]12 [EPIANDROSTERONE]"
  Activity: "Non-Toxic"
- compound: "C[C@]12CC[C@H](OCC(=O)N3CCOCC3)C[C@@H]1CC[C@@H]1[C@@H]2CC[C@]2(C)C(=O)[C@H](Br)C[C@@H]12"
  Activity: "Toxic"
- compound: "C[C@]12CC[C@H](OCCS(=O)(=O)N3CCOCC3)C[C@@H]1CC[C@@H]1[C@@H]2CC[C@]2(C)C(=O)[C@H](Br)C[C@@H]12"
  Activity: "Toxic"
- compound: "C[C@]12CC[C@H](O)C[C@@H]1CC[C@@H]1[C@@H]2CC[C@]2(C)C(=O)[C@H](Br)C[C@@H]12 [16.ALPHA.-BROMOEPIANDROSTERONE]"
  Activity: "Toxic"

IN: Fill in: Activity of CC(=O)O[C@H]1CC[C@@]2(C)[C@@H](CC[C@@H]3[C@@H]2CC[C@]2(C)C(=O)[C@H](Br)C[C@@H]32)C1 is ___
OUT: Toxic

IN: Try this compound next: CC(C)CO[C@H]1CC[C@@]2(C)[C@@H](CC[C@@H]3[C@@H]2CC[C@]2(C)C(=O)[C@H](Br)C[C@@H]32)C1
OUT: Toxic

IN: Try this compound next: CO[C@H]1CC[C@@]2(C)[C@@H](CC[C@@H]3[C@@H]2CC[C@]2(C)C(=O)CC[C@@H]32)C1
OUT: Non-Toxic

IN: Try this compound next: CN1CCN(CCS(=O)(=O)O[C@H]2CC[C@@]3(C)[C@@H](CC[C@@H]4[C@@H]3CC[C@]3(C)C(=O)CC[C@@H]43)C2)CC1
OUT: Non-Toxic

IN: Try this compound next: C=CCC(=O)O[C@H]1CC[C@@]2(C)[C@@H](CC[C@@H]3[C@@H]2CC[C@]2(C)C(=O)CC[C@@H]32)C1
OUT: Non-Toxic

IN: Try this compound next: C[C@]12CCCC[C@@H]1CC[C@@H]1[C@@H]2CC[C@]2(C)C(=O)[C@H](Br)C[C@@H]12
OUT: Toxic

IN: Try this compound next: CC(=O)O[C@H]1CC[C@@]2(C)[C@@H](CC[C@@H]3[C@@H]2CC[C@]2(C)C(=O)CC[C@@H]32)C1
OUT: Non-Toxic

IN: Try this compound next: C=CCC(=O)O[C@H]1CC[C@@]2(C)[C@@H](CC[C@@H]3[C@@H]2CC[C@]2(C)C(=O)[C@H](Br)C[C@@H]32)C1
OUT: Toxic

This collection of values is drawn from ChEMBL document CHEMBL4627403.
